- protocol-details: protease stability score; higher = more stable; yeast display proteolysis, trypsin and chymotrypsin;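 further: log10 excess protease needed over predicted unfolded state with 0 meaning unfolded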
Label no (0) if protease stability score falls below 0.3; label yes (1) in every other case.

Worked examples follow.
- seq-text: "DEEEQMHQANQNLRDAFRTNDPDTWRTLVDENARVRIGDKHVSGREEVKELMEDIAREADHLELRVQSMTVRNGELHVHFTLRADVNGQKREIQVVVVLVVRNGRARISRVEQT"
  class-assignment: "yes (1)"
- seq-text: "DETDQVETLLKRFKEAVDHGDKHQARHLFRDDVRIKYGDKEIHGRDNLAHWIVDRARRADHVDFTIRQFDVRNGRVSVDVEVRYDVNGKHDHKRYTLRADLRNGRATAVTIEVR"
  class-assignment: "yes (1)"
- seq-text: "DREEQKKVAKHMDDLVRTGDPREATDLIDPNAKADVGDKQYHGREQLHKLFKEQHERADHADLKSFDAHNGKVEVNVIIQVNGRRHRVIYHADADNGRVKFVSVRSS"
  class-assignment: "no (0)"
- seq-text: "DETEQAKKLLNDIENIFRTGDPKQLEKLAPPDVDVRVGDKEVHGKEQVVEELQRRQESFDHIEFNLHRVSVSGDKYRLDYEVRFDHNGRTETYRVVVVYVNNNGRLQDKSMTIK"
  class-assignment: "yes (1)"
- seq-text: "DHEIRHFAEQVVRVLNTGDEEEIEKLFDPNARITVGDKSYHGMDDYARKVKQTRDEMRFTIDVKDLKVSGDSVSMRAHVVHDHNGTPQKDTEQREFRVQGDRVKHMDVKSDG"
  class-assignment: "no (0)"

Kindly consider the entry below.
Q: Tell me whether protease stability score is at least 0.3 here: `DEDAIRSVEKMLQDRRTGNPHEVQKMFDPNAQVDVGDKTVQGRENIKDHVETDLRQSRFHMEIKHVQAHNGQIDIDAERSYTRNGQPDSNRVEIVIDIKNGKIRSVKVRTDD`
A: no (0)
